B1: library; a variant is named by its letters at N, in order (parent)
chain: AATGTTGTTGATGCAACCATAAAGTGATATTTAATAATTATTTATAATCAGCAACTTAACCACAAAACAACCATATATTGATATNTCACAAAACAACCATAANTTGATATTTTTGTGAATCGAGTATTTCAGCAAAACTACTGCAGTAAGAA

- Variants of: B1
- protocol-text: relative integration efficiency (T-LR orientation) vs wild-type transposon end (log2 (normalized fold change)); transposon end mutated: left end; higher = more efficient transposition
- measurement-parameters: with VchCAST RNA-guided transposition machinery (E. coli BL21(DE3) host, lacZ target)
property-measured: relative integration efficiency (log2)
Output spec: single numeric token, no unit.

Q: # lookup: relative integration efficiency (log2) of CG G4A
A: -0.235

Q: Given the variant CG A1T , what is its reported relative integration efficiency (log2)?
A: 0.281

Q: Using the record for CG A36T A37T , report its relative integration efficiency (log2).
A: 0.375

Q: Reported relative integration efficiency (log2), variant CG T42G : ____
A: 0.0763

Q: For the variant shown here, CG A70T C71G C72G A73T , give the reported relative integration efficiency (log2).
A: -2.15

Q: Returns the measured relative integration efficiency (log2) for the input variant. Input: CG A73T T74A A75T T76A
A: -1.64

Q: // lookup relative integration efficiency (log2) for CG A27T T28A A29T T30A
A: -0.918
